test system: HT-29; test: Antiproliferative activity against human HT-29 cells after 48 hrs by cell titer-glo assay; assay type: functional, cell-based; settings: HT-29, 48 h
pEC50: −log10 of the molar value.
If the reported pEC50 equals or exceeds 5, assign Condition met. If not, assign Condition not met.

molecule: O=C(CCCCCCC(=O)NO)NO [SUBEROHYDROXAMIC ACID]
assignedLabel: Condition not met
--
molecule: O=C(CCCCCCC(=O)Nc1cccc2cccnc12)NO
assignedLabel: Condition not met
--
molecule: O=C(CCCCCCC(=O)Nc1ccc(O)cc1)NO
assignedLabel: Condition not met
--
molecule: O=C(CCCCCCC(=O)Nc1[nH]c(=O)ncc1F)NO
assignedLabel: Condition not met
--
molecule: O=C(CCCCCCC(=O)Nc1ccccc1Br)NO
assignedLabel: Condition not met
--
molecule: CN(C)c1ccc(NC(=O)CCCCCCC(=O)NO)cc1
assignedLabel: Condition met
--
molecule: O=C(CCCCCCC(=O)Nc1cc2ccc3cccc4ccc(c1)c2c34)NO
assignedLabel: Condition met
--
molecule: N#Cc1ccc(NC(=O)CCCCCCC(=O)NO)cc1
assignedLabel: Condition not met

----------
system: U-937; test: Antiproliferative activity against human U937 cells after 48 hrs by cell titer-glo assay; assay type: functional, cell-based; conditions: U-937, 48 h

molecule: O=C(CCCCCCC(=O)Nc1cccc(F)c1)NO
prefixOperator: =
EC50 / nM: 500
--
molecule: O=C(CCCCCCC(=O)Nc1[nH]c(=O)ncc1F)NO
prefixOperator: =
EC50 / nM: 26500
--
molecule: O=C(CCCCCCC(=O)Nc1cccc2cccnc12)NO
prefixOperator: =
EC50 / nM: 26000
--
molecule: O=C(CCCCCCC(=O)NO)NO [SUBEROHYDROXAMIC ACID]
prefixOperator: =
EC50 / nM: 23000
--
molecule: O=C(CCCCCCC(=O)Nc1cc2ccc3cccc4ccc(c1)c2c34)NO
prefixOperator: =
EC50 / nM: 300
--
molecule: N#Cc1ccc(NC(=O)CCCCCCC(=O)NO)cc1
prefixOperator: =
EC50 / nM: 7000
--
molecule: O=C(CCCCCCC(=O)Nc1cccc(Cl)c1)NO
prefixOperator: =
EC50 / nM: 350
--
molecule: O=C(O)CCCCCCC(=O)NO
prefixOperator: >
EC50 / nM: 100000
--
molecule: O=C(CCCCCCC(=O)Nc1ccc(F)cc1)NO
prefixOperator: =
EC50 / nM: 1800
--
molecule: O=C(CCCCCCC(=O)Nc1cccc(C(F)(F)F)c1)NO
prefixOperator: =
EC50 / nM: 1200
--
molecule: O=C(CCCCCCC(=O)Nc1ccc2ccccc2c1)NO
prefixOperator: =
EC50 / nM: 350
--
molecule: CN(C)c1ccc(NC(=O)CCCCCCC(=O)NO)cc1
prefixOperator: =
EC50 / nM: 1700
--
molecule: O=C(CCCCCCC(=O)Nc1ccc([N+](=O)[O-])cc1)NO
prefixOperator: =
EC50 / nM: 22000
--
molecule: O=C(CCCCCCC(=O)Nc1ccc(O)cc1)NO
prefixOperator: =
EC50 / nM: 6400
--
molecule: O=C(CCCCCCC(=O)Nc1ccc(I)cc1)NO
prefixOperator: =
EC50 / nM: 120
--
molecule: O=C(CCCCCCC(=O)Nc1ccc2c(c1)Cc1ccccc1-2)NO
prefixOperator: =
EC50 / nM: 600
--
molecule: O=C(CCCCCCC(=O)Nc1ccc(Cl)cc1)NO
prefixOperator: =
EC50 / nM: 550
--
molecule: O=C(CCCCCCC(=O)Nc1ccccc1Br)NO
prefixOperator: =
EC50 / nM: 6800
--
molecule: Nc1ccc(NC(=O)CCCCCCC(=O)NO)cc1
prefixOperator: =
EC50 / nM: 6400
--
molecule: O=C(CCCCCCC(=O)Nc1ccccc1)NO [VORINOSTAT]
prefixOperator: =
EC50 / nM: 820
--
molecule: O=C(CCCCCCC(=O)Nc1ccccc1-c1ccccc1)NO
prefixOperator: =
EC50 / nM: 14000
--
molecule: O=C(CCCCCCC(=O)Nc1ccc(C(F)(F)F)cc1)NO
prefixOperator: =
EC50 / nM: 450

----------
system: SK-BR-3; experiment: Antiproliferative activity against human SK-BR-3 cells after 48 hrs by cell titer-glo assay; format: functional, cell-based; details: SK-BR-3, 48 h

compound: O=C(CCCCCCC(=O)Nc1ccc2ccccc2c1)NO
EC50: 1800 nM
//
compound: O=C(CCCCCCC(=O)Nc1ccc(I)cc1)NO
EC50: 1100 nM
//
compound: O=C(CCCCCCC(=O)Nc1cccc(C(F)(F)F)c1)NO
EC50: 26000 nM
//
compound: O=C(CCCCCCC(=O)Nc1cccc(F)c1)NO
EC50: 1900 nM
//
compound: O=C(CCCCCCC(=O)Nc1cc2ccc3cccc4ccc(c1)c2c34)NO
EC50: 1200 nM
//
compound: O=C(CCCCCCC(=O)Nc1ccccc1-c1ccccc1)NO
EC50: 73500 nM
//
compound: O=C(CCCCCCC(=O)Nc1cccc2cccnc12)NO
EC50: > 100000 nM
//
compound: O=C(CCCCCCC(=O)NO)NO [SUBEROHYDROXAMIC ACID]
EC50: 27000 nM
//
compound: O=C(CCCCCCC(=O)Nc1ccc(F)cc1)NO
EC50: 3000 nM
//
compound: N#Cc1ccc(NC(=O)CCCCCCC(=O)NO)cc1
EC50: 8800 nM
//
compound: O=C(CCCCCCC(=O)Nc1ccc(C(F)(F)F)cc1)NO
EC50: 2200 nM
//
compound: O=C(CCCCCCC(=O)Nc1ccc(Cl)cc1)NO
EC50: 2300 nM
